All values here come from PubChem BioAssay (NCI).

growth inhibition values for the compounds below.
assay: NCI Yeast Anticancer Drug Screen. Data for the bub3 strain (AID 167); conditions: S. cerevisiae bub3 mutant strain, at 50.0 µM, stronger effect = higher value
This is part of a sample that, as a whole, favours compounds with a hit. Of some 79,000 tested, about 15% had one in any assay.

- compound: "C/C(=N\\NC(=S)N1CCN(c2ccccn2)CC1)c1ccccn1"
  result_units: "%"
  growth inhibition: 90.1
- compound: "CC(C)CC(CC(C)C)OP(=O)(O)OC(CC(C)C)CC(C)C"
  result_units: "%"
  growth inhibition: 70.5
- compound: "O=c1[nH]c2ccccc2nc1CBr"
  result_units: "%"
  growth inhibition: 90.2
- compound: "CCOC(=O)C(=O)Nc1ccc(Cl)cc1Cl"
  result_units: "%"
  growth inhibition: 10.6
- compound: "CN(C)CC1CC/C(=C\\c2ccc(O)cc2)C1=O (configuration not stated)"
  result_units: "%"
  growth inhibition: 91.9
- compound: "O=C(Nc1ccccc1)Oc1c(Cl)c(Cl)c(Cl)c(Cl)c1Cl"
  result_units: "%"
  growth inhibition: 54.4
- compound: "O=C1OC(CCCl)(c2ccccc2)CC1CN1CCOCC1 (configuration not stated)"
  result_units: "%"
  growth inhibition: 71.5
- compound: "CCC1(c2ccc(N3C(=O)c4ccccc4C3=O)cc2)CCC(=O)NC1=O (configuration not stated)"
  result_units: "%"
  growth inhibition: -8.6
- compound: "C[C@@]12C(=O)OC(=O)[C@]1(C)[C@H]1CC[C@@H]2O1"
  result_units: "%"
  growth inhibition: 92.8
- compound: "COC(=O)c1cc(OC)c(OC)c(OC)c1"
  result_units: "%"
  growth inhibition: 36.9
- compound: "CC1=CC2C(O)(CC(CO)=CC3C4C(C)(C)C4(OC(=O)c4ccccc4)C(OC(=O)c4ccccc4)C(C)C32O)C1=O (configuration not stated)"
  result_units: "%"
  growth inhibition: 89.2
- compound: "COc1ccc(CN=C(N)N)c2ccccc12"
  result_units: "%"
  growth inhibition: -32.5

---

test: NCI Yeast Anticancer Drug Screen. Data for the mec2-1 strain (AID 157); details: S. cerevisiae mec2-1 strain, at 50.0 µM, stronger effect = higher value
About 79,000 compounds went through this panel and 15% of them were active in at least one assay; those are over-represented in the sample as a whole. Active and inactive are the calls of the source. No stated cut-off is given here; in the data, active means growth inhibition above about 70%; inactive means the rest.
growth inhibition values for the compounds below.

- compound: "Nc1ccc2c(c1)[nH]c(=O)c1cccc(Cl)c12"
  growth inhibition: "55.3% (inactive)"
- compound: "Cc1cccc2cc3c(cc12)c(C)cc1ccccc13"
  growth inhibition: "75.1% (active)"
- compound: "CSc1ccc(/C=N/NC(N)=S)cc1"
  growth inhibition: "76% (active)"
- compound: "CCCCCCCN(CCCCCCC)CC(O)c1ccc2ccc3ccccc3c2c1 (centres undefined)"
  growth inhibition: "62% (inactive)"
- compound: "O=C(Nc1ccccc1)Oc1c(Cl)c(Cl)c(Cl)c(Cl)c1Cl"
  growth inhibition: "45.8% (inactive)"
- compound: "CCN(CC)CCOC(=O)C1C(c2ccccc2)C1(c1ccccc1)c1ccccc1 (centres undefined)"
  growth inhibition: "62.8% (inactive)"
- compound: "Nc1nccc(NCCCCCCNc2ccnc(N)n2)n1"
  growth inhibition: "41.6% (inactive)"
- compound: "O=C(NC(=S)Nc1ncc([N+](=O)[O-])s1)c1ccccc1C(=O)NC(=S)Nc1ncc([N+](=O)[O-])s1"
  growth inhibition: "29.6% (inactive)"
- compound: "COc1cc(/C=C2/SC(=S)NC2=O)cc(OC)c1O"
  growth inhibition: "30.9% (inactive)"
- compound: "N#Cc1c(-c2ccc(Cl)cc2)c(-c2ccc(Cl)cc2)nn(CCOC(=O)CCC(=O)O)c1=O"
  growth inhibition: "88.8% (active)"
- compound: "CC(C)/C(Cl)=N\\OC(=O)Nc1ccc(S(N)(=O)=O)cc1"
  growth inhibition: "18.8% (inactive)"
- compound: "CN(C)C1CCC(N=Nc2cc([N+](=O)[O-])ccc2C(=O)O)CC1 (centres undefined)"
  growth inhibition: "56.7% (inactive)"
- compound: "COc1cc2c(cc1O)C1Cc3ccc(OC)c(O)c3C(C2)N1C (centres undefined)"
  growth inhibition: "-3.45% (inactive)"
- compound: "CC1SC(=S)N(c2ccc(Cl)cc2)C1=O (centres undefined)"
  growth inhibition: "80.7% (active)"
- compound: "Cc1cc2c(cc1Cl)Sc1nnc(C)n1S2(=O)=O"
  growth inhibition: "71% (active)"
- compound: "CCCCCc1ccc2cc(C(=O)O)[nH]c2c1"
  growth inhibition: "95.6% (active)"
- compound: "O=S(=O)(O)c1cc2ccccc2c(O)c1N=Nc1ccccc1"
  growth inhibition: "-16% (inactive)"
- compound: "O=C(Nc1cccc(Br)c1)Oc1cccc2cccnc12"
  growth inhibition: "89.8% (active)"
- compound: "COc1ccc(Cc2ccc(N)cc2)cc1"
  growth inhibition: "86.7% (active)"
- compound: "O=C(Nc1ccc(F)cc1)ON=C1CCCCC1"
  growth inhibition: "92.3% (active)"
- compound: "CCOC(=O)C(CO)c1nc2c([nH]c1=O)c(=O)n(C)c(=O)n2C (centres undefined)"
  growth inhibition: "43.5% (inactive)"
- compound: "c1ccc2c(c1)Nc1ccccc1[P+]21c2ccccc2Nc2ccccc21"
  growth inhibition: "98.8% (active)"
- compound: "COc1ccc2nc3cc([N+](=O)[O-])ccc3c(NNc3ccc([N+](=O)[O-])cc3)c2c1"
  growth inhibition: "36.9% (inactive)"
- compound: "O=C(O)c1ccc(/C=C2\\COc3ccccc3C2=O)cc1"
  growth inhibition: "67% (inactive)"
